Tested on: Poa annua (POAAN)
Experiment: B. Herbicidal post-emergence efficacy, POAAN
Format: in vivo
Conditions: 320 g/ha
observation-type: Post-emergence efficacy against POAAN
Dear colleague, please send the value followed by its unit.

Examples with answers:
O=S(=O)(CCCCl)Oc1c(F)cccc1Oc1ncc(Cl)cn1
100%
O=S(=O)(CCCC(F)(F)C(F)(F)F)Oc1c(F)cccc1Oc1ncc(Cl)cn1
90%
O=S(=O)(CCC(F)(F)F)Oc1c(Cl)cccc1Oc1ncc(Br)cn1
100%
CCCCCS(=O)(=O)Oc1ccccc1Oc1ncc(Cl)cn1
90%
O=S(=O)(CCC(F)(F)F)Oc1c(F)cccc1Oc1ncc(Br)cn1
90%
O=S(=O)(CCC(F)(F)F)Oc1c(Br)cccc1Oc1ncc(Cl)cn1
90%

Given the entry `O=S(=O)(CCCCCl)Oc1ccccc1Oc1ncc(Cl)cn1` , what Post-emergence efficacy against POAAN was observed with Poa annua (POAAN)?
90%

Given the entry `O=S(=O)(CC1CC(F)(F)C1)Oc1c(F)cccc1Oc1ncc(Cl)cn1` , what Post-emergence efficacy against POAAN was observed with Poa annua (POAAN)?
90%

Given the entry `O=S(=O)(CCCC(F)(F)F)Oc1c(Cl)cccc1Oc1ncc(Br)cn1` , what Post-emergence efficacy against POAAN was observed with Poa annua (POAAN)?
100%

Given the entry `O=S(=O)(CCCCl)Oc1ccccc1Oc1ncc(Cl)cn1` , what Post-emergence efficacy against POAAN was observed with Poa annua (POAAN)?
100%

###

Test system: Kochia scoparia (KCHSC)
Test: B. Herbicidal post-emergence efficacy, KCHSC
Type: in vivo
Settings: 320 g/ha, rated visually after about 3 weeks
# maps each entry to its Post-emergence efficacy against KCHSC in %
Dear colleague, please send the value followed by its unit.

CC(C)CCS(=O)(=O)Oc1ccccc1Oc1ncc(Cl)cn1
100%
O=S(=O)(CCCC(F)(F)F)Oc1c(Cl)cccc1Oc1ncc(Br)cn1
100%
O=S(=O)(CCCCl)Oc1ccccc1Oc1ncc(Cl)cc1F
90%
O=S(=O)(CCCC(F)(F)F)Oc1c(Br)cccc1Oc1ncc(Cl)cn1
100%

Entry under review: O=S(=O)(CC1CC1(Cl)Cl)Oc1c(F)cccc1Oc1ncc(Cl)cn1 (stereo not shown) . Reported Post-emergence efficacy against KCHSC in %?
90%

Entry under review: `O=S(=O)(CCCC(F)(F)F)Oc1c(F)cccc1Oc1ncc(F)cn1` . Reported Post-emergence efficacy against KCHSC in %?
100%

Entry under review: `CCS(=O)(=O)Oc1ccccc1Oc1ncc(Cl)cn1` . Reported Post-emergence efficacy against KCHSC in %?
100%

Entry under review: `O=S(=O)(CCCC(F)(F)F)Oc1c(Br)cccc1Oc1ncc(F)cn1` . Reported Post-emergence efficacy against KCHSC in %?
100%

Entry under review: `O=S(=O)(CC1CC(F)(F)C1)Oc1c(F)cccc1Oc1ncc(Cl)cn1` . Reported Post-emergence efficacy against KCHSC in %?
90%

Entry under review: `O=S(=O)(CCC1CC1)Oc1c(F)cccc1Oc1ncc(Cl)cn1` . Reported Post-emergence efficacy against KCHSC in %?
90%

Entry under review: `COCCS(=O)(=O)Oc1ccccc1Oc1ncc(Cl)cn1` . Reported Post-emergence efficacy against KCHSC in %?
90%

Entry under review: `O=S(=O)(CC1CC(F)(F)C1)Oc1c(Br)cccc1Oc1ncc(Cl)cn1` . Reported Post-emergence efficacy against KCHSC in %?
100%

Entry under review: `CC(C)S(=O)(=O)Oc1ccccc1Oc1ncc(Cl)cn1` . Reported Post-emergence efficacy against KCHSC in %?
100%

Entry under review: `O=S(=O)(CCCC(F)(F)C(F)(F)F)Oc1c(F)cccc1Oc1ncc(Cl)cn1` . Reported Post-emergence efficacy against KCHSC in %?
100%

This collection of values is drawn from patent US20240174618A1.
